experiment: physchem; conditions: water
Square brackets hold non-standard residues; d marks the D form. Peptide text beside a SMILES is read from it. * marks the point of attachment. NH(1-CH2NMe2-cBu) = CN(C)CC1(N*)CCC1; Benzoyl(4-F) = O=C(c1ccc(F)cc1)*; hCha = N[C@@H](CCC1CCCCC1)C(=O)O; Aib = CC(C)(N)C(=O)O; βAla = NCCC(=O)O
Assay endpoint: solubility (µg/mL)
Give bare numbers, in µg/mL.

For CC(C)C[C@H](NC(=O)[C@H](CCC1CCCCC1)NC(=O)[C@@H]1CCCN1C(=O)c1ccc(F)cc1)C(=O)NC(C)(C)C(=O)N[C@@H](CC(C)C)C(=O)N[C@@H](CC(C)C)C(=O)NC(C)(C)C(=O)NC(C)(C)C(=O)NCCC(=O)NC1(CN(C)C)CCC1 [Compound 6027] ({Benzoyl(4-F)}-P[hCha]L[Aib]LL[Aib][Aib][βAla]-{NH(1-CH2NMe2-cBu)}) the compound record lists solubility as 22
